Reference source for all entries: patent US8394797B2

Consider the following compounds; for each one, report its pKi.
target: σ1-receptor (Cavia porcellus, UniProt Q60492); construct: guinea pig brains were homogenized; from tissue; host or cells: guinea pig brain membranes; assay: Sigma-1 receptor binding, [3H](+)-pentazocine, brain membranes; set-up: species or system guinea pig
Sequence (Q60492 whole entry): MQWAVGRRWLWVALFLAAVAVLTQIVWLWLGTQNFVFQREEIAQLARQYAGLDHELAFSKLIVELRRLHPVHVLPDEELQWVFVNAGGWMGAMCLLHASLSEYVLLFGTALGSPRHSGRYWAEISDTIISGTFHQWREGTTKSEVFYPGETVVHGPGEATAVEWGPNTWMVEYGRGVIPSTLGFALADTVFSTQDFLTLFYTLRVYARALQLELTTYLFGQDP
Give bare numbers, as −log10 of the molar value.

Compound	Test System	pKi
O=C(O)C(=O)O.c1ccc(-n2ncc3c2CCC3CCN2CCC3(CC2)OCc2ccccc23)cc1 (stereo not drawn) [Example 51, oxalate]	σ1-receptor (Cavia porcellus, UniProt Q60492)	7.50
O=C(O)C(=O)O.c1ccc(-n2ncc3c2CCCC3CCN2CCC3(CC2)OCc2ccccc23)cc1 (stereo not drawn) [Example 12, oxalate]	σ1-receptor (Cavia porcellus, UniProt Q60492)	9.05

Turning now to a further record.
Request: Find the recorded pKi belonging to C(/CN1CCC2(CC1)OCc1ccccc12)=C1/CCCc2c1cnn2-c1ccccc1.O=C(O)C(=O)O [Example 19, oxalate] and report it.
Result: 8.31

* * *

target: σ1-receptor (Cavia porcellus); construct: guinea pig brains were homogenized; from tissue; host or cells: guinea pig brain membranes; test: Sigma-1 receptor binding, [3H](+)-pentazocine, brain membranes; design: species or system guinea pig; conditions: 2.5 h; tested compound at 10^-6 M; [3H](+)-pentazocine 0.5 nM; read-out: binding sigma-1 (*) % of radioactively labeled compound replaced by the tested compound
Counter-ions that a name gives are not always drawn.
Assay Readout: inhibition at 1 µM (%)
Give bare numbers, in %.

Compound	Unit Of Measure	inhibition at 1 µM
C[C@@H]1CN(CCC2CCc3c2cnn3-c2ccccc2)C[C@H](C)O1.O=C(O)C(=O)O (stereo partly shown) [Example 47, oxalate]	%	104

Required: inhibition at 1 µM, one value per compound below.
1. c1ccc(C2CCN(CCC3CCc4c3cnn4-c3ccccc3)CC2)cc1 (stereo not shown)
2. c1ccc(-n2ncc3c2CCC3CCN2CCSCC2)cc1 (stereo not shown) [Example 97, oxalate]
3. C(/CN1CCCCCC1)=C1/CCCc2c1cnn2-c1ccccc1.O=C(O)C(=O)O [Example 16, oxalate]

Result:
1: 103; 2: 102; 3: 99.9

* * *

molecular target: σ1-receptor (Cavia porcellus, UniProt Q60492); construct: guinea pig brains were homogenized; from tissue; host or cells: guinea pig brain membranes; experiment: Sigma-1 receptor binding, [3H](+)-pentazocine, brain membranes; set-up: species or system guinea pig; settings: 2.5 h; tested compound at 10^-6 M; [3H](+)-pentazocine 0.5 nM; read-out: binding sigma-1 (*) % of radioactively labeled compound replaced by the tested compound
Structures can show the parent of a compound that is named as a salt.
Assay Readout: inhibition at 1 µM (%)
Numbers only, in %.

Solved entries:
Compound	Assay Readout	Unit Of Measure	Value Reported
CC1CCN(CCC2CCc3c2cnn3-c2ccccc2)CC1 (centres unmarked) [Example 99, oxalate]	inhibition at 1 µM	%	102
c1ccc(CN2CCN(CCC3CCCc4c3cnn4-c3ccccc3)CC2)cc1 (centres unmarked)	inhibition at 1 µM	%	100
CN(CCC1CCc2c1cnn2-c1ccccc1)Cc1ccccc1 (centres unmarked)	inhibition at 1 µM	%	106
Fc1ccc(-n2ncc3c2CCCC3CCN2CCOCC2)cc1.O=C(O)C(=O)O (centres unmarked) [Example 66, oxalate]	inhibition at 1 µM	%	98.1

Now for a further compound.
Request: Find the recorded inhibition at 1 µM belonging to CN(CCC1CCCc2c1cnn2C)Cc1ccccc1.O=C(O)C(=O)O (centres unmarked) [Example 62, oxalate] and report it.
Result: 104
